The following compounds are shown together with reported Plate 1 (% inhibition) values.
- System under test: human AspH (His6-AspH315–758) (Homo sapiens, UniProt Q12797)
- Construct: N-Terminally His6-tagged human AspH315–758 (His6-AspH315–758) was produced in Escherichia coli BL21 (DE3) cells; made in house; host or cells: Escherichia coli BL21 (DE3), pET-28a(+) vector
- Sequence (Q12797 315-758): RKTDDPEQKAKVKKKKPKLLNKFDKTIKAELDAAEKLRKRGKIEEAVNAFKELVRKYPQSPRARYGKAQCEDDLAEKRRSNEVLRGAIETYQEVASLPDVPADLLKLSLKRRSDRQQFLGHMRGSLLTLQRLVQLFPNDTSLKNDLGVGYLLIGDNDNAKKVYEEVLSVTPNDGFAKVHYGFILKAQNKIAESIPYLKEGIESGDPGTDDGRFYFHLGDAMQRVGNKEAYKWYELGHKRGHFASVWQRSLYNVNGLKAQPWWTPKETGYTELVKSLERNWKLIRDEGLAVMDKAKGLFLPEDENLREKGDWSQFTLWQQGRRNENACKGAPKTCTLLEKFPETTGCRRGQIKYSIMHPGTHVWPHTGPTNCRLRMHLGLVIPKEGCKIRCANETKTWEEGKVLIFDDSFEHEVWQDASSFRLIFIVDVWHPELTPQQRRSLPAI
- Method: SPE-MS AspH inhibition assay (hFX-CP101-119 substrate hydroxylation)
- Type: biochemical
- Test settings: AspH-inhibitor screening, 384-well Plate 1
Counter-ions that a name gives are not always drawn.

CC(C)NC[C@@H](C(=O)N1CCN(c2ncnc3c2[C@H](C)C[C@H]3O)CC1)c1ccc(Cl)cc1 [GDC-0068]
-1.30%
COc1cc2c(Nc3ccc(Br)cc3F)ncnc2cc1OCC1CCN(C)CC1 [Vandetanib]
-0.26%
O=C(Nc1cccnc1)N1CCC(Cc2cccc(Oc3ccc(C(F)(F)F)cn3)c2)CC1 [PF-3845]
5.62%
CC(C)C[C@H](NC(=O)[C@@H](COC(C)(C)C)NC(=O)[C@H](Cc1ccc(O)cc1)NC(=O)[C@H](CO)NC(=O)[C@H](Cc1c[nH]c2ccccc12)NC(=O)[C@H](Cc1cnc[nH]1)NC(=O)[C@@H]1CCC(=O)N1)C(=O)N[C@@H](CCCNC(=N)N)C(=O)N1CCC[C@H]1C(=O)NNC(N)=O [Goserelin acetate]
-21.27%
CNNCc1ccc(C(=O)NC(C)C)cc1 [Procarbazine hydrochloride]
0.24%
CCc1cnn2c(NCc3ccc[n+]([O-])c3)cc(N3CCCC[C@H]3CCO)nc12 [Dinaciclib (SCH727965)]
1.39%

Report measured Plate 1 (% inhibition) on human AspH (His6-AspH315–758) (Homo sapiens, UniProt Q12797); entry: O=C(c1cc(Cc2n[nH]c(=O)c3ccccc23)ccc1F)N1CCN(C(=O)C2CC2)CC1 [Olaparib]
15.27%

----------
- System under test: human AspH (His6-AspH315–758) (Homo sapiens, UniProt Q12797)
- Construct: N-Terminally His6-tagged human AspH315–758 (His6-AspH315–758) was produced in Escherichia coli BL21 (DE3) cells; made in house; host or cells: Escherichia coli BL21 (DE3), pET-28a(+) vector
- Method: SPE-MS AspH inhibition assay (hFX-CP101-119 substrate hydroxylation)
- Assay type: biochemical
- Test settings: AspH-inhibitor screening, Plate 1-duplicate, substrate conversion
Structures can show the parent of a compound that is named as a salt.
The following molecules are shown together with reported Plate 1-duplicate (% conversion) values.

Below: 4 molecules and their reported Plate 1-duplicate (% conversion).
CC(=O)OC[C@H]1O[C@@H]([S-])[C@H](OC(C)=O)[C@@H](OC(C)=O)[C@@H]1OC(C)=O.CCP(CC)CC.[Au+] [Auranofin]
24.51%
CN(c1ccccc1CNc1nc(Nc2ccc3c(c2)CC(=O)N3)ncc1C(F)(F)F)S(C)(=O)=O [PF 431396]
54.34%
Nc1ncnc2c1c(COc1cccc(Cl)c1)nn2C1CCOCC1 [PF4800567 hydrochloride]
51.91%
Cl.N[C@@H](Cc1ccc(N(CCCl)CCCl)cc1)C(=O)O [Melphalan hydrochloride]
50.22%

Identify measured Plate 1-duplicate (% conversion) associated with COc1ccc(-c2ccc3c(N4CCOC[C@@H]4C)nc(N4CCOC[C@@H]4C)nc3n2)cc1CO [AZD8055]
49.60%

Identify measured Plate 1-duplicate (% conversion) associated with CC(=O)Oc1ccccc1C(=O)O [Aspirin (Acetylsalicylic Acid)]
49.07%

Identify measured Plate 1-duplicate (% conversion) associated with Nc1cccc2c1CN(C1CCC(=O)NC1=O)C2=O (centres unmarked) [Lenalidomide]
49.79%

Identify measured Plate 1-duplicate (% conversion) associated with CCCS(=O)(=O)Nc1ccc(F)c(C(=O)c2c[nH]c3ncc(-c4ccc(Cl)cc4)cc23)c1F [PLX4032_Vemurafenib]
29.15%

----------
The following molecules are shown together with reported Plate 1 (% inhibition) values.
- System under test: human AspH (His6-AspH315–758) (Homo sapiens, UniProt Q12797)
- Construct: N-Terminally His6-tagged human AspH315–758 (His6-AspH315–758) was produced in Escherichia coli BL21 (DE3) cells; made in house; host or cells: Escherichia coli BL21 (DE3), pET-28a(+) vector
- Method: SPE-MS AspH inhibition assay (hFX-CP101-119 substrate hydroxylation)
- Type: biochemical
- Test settings: AspH-inhibitor screening, 384-well Plate 1
Number in %, nothing else.

O=C(Nc1c[nH]nc1-c1nc2ccc(CN3CCOCC3)cc2[nH]1)NC1CC1
-0.09
C/C(=C\c1csc(C)n1)[C@@H]1C[C@@H]2O[C@]2(C)CCC[C@H](C)[C@H](O)[C@@H](C)C(=O)C(C)(C)[C@@H](O)CC(=O)N1 [Ixabepilone]
-1.86
CCn1c(-c2nonc2N)nc2cnc(Oc3cccc(NC(=O)c4ccc(OCCN5CCOCC5)cc4)c3)cc21
-27.40

Identify measured Plate 1 (% inhibition) associated with Clc1ccc(Nc2nnc(Cc3ccncc3)c3ccccc23)cc1
7.55

Identify measured Plate 1 (% inhibition) associated with O=C(c1ccc(F)c(F)c1Nc1ccc(I)cc1F)N1CC(O)([C@@H]2CCCCN2)C1
-5.94

Identify measured Plate 1 (% inhibition) associated with CCCC(CCC)C(=O)O
16.50

Identify measured Plate 1 (% inhibition) associated with CC(C)(C#N)c1cc(Cn2cncn2)cc(C(C)(C)C#N)c1
2.34

Identify measured Plate 1 (% inhibition) associated with Cl.O=C(/C=C/c1cccnc1)NCCCCC1CCN(C(=O)c2ccccc2)CC1 [FK-866 HCl_Daporinad]
2.15

Identify measured Plate 1 (% inhibition) associated with CCNC(=O)c1noc(-c2cc(C(C)C)c(O)cc2O)c1-c1ccc(CN2CCOCC2)cc1
-7.77

----------
- System under test: human AspH (His6-AspH315–758) (Homo sapiens, UniProt Q12797)
- Construct: N-Terminally His6-tagged human AspH315–758 (His6-AspH315–758) was produced in Escherichia coli BL21 (DE3) cells; made in house; host or cells: Escherichia coli BL21 (DE3), pET-28a(+) vector
- Method: SPE-MS AspH inhibition assay (hFX-CP101-119 substrate hydroxylation)
- Assay type: biochemical
- Test settings: AspH-inhibitor screening, 384-well Plate 1, substrate conversion
Assay metric: Plate 1 (% conversion) (%)
Number in %, nothing else.

CCc1cc2c(cc1N1CCC(N3CCOCC3)CC1)C(C)(C)c1[nH]c3cc(C#N)ccc3c1C2=O [Alectinib]
49.93
CC(=O)O[C@H]1C(=O)[C@@]2(C)[C@H]([C@H](OC(=O)c3ccccc3)[C@]3(O)C[C@H](OC(=O)[C@H](O)[C@@H](NC(=O)c4ccccc4)c4ccccc4)C(C)=C1C3(C)C)[C@]1(OC(C)=O)CO[C@@H]1C[C@@H]2O [Paclitaxel]
46.70
Cn1cc(-c2[nH]c3cc(NC(=O)[C@H](N)C4CCCCC4)cc4c3c2C=NNC4=O)cn1 [PF 477736]
74.83
OC[C@H]1O[C@@H](n2cnc3c2NC=NC[C@H]3O)C[C@@H]1O [Pentostatin]
44.81
Nc1cc(C(F)(F)F)c(-c2cc(N3CCOCC3)nc(N3CCOCC3)n2)cn1 [BKM-120_Buparlisib]
48.96

Identify measured Plate 1 (% conversion) associated with CN(N=O)C(=O)N[C@@H](C=O)[C@@H](O)[C@H](O)[C@H](O)CO [Streptozocin]
46.84

Identify measured Plate 1 (% conversion) associated with Cc1cc(Nc2cc(CN3CCOCC3)c3nc(C)c(Cc4ccc(Cl)cc4F)n3n2)n[nH]1 [LY2784544_Gandotinib]
79.23

Identify measured Plate 1 (% conversion) associated with COc1ccc(S(=O)(=O)Nc2cccnc2Nc2ccc(O)cc2)cc1 [ABT-751]
47.50

Identify measured Plate 1 (% conversion) associated with CS(=O)(=O)c1ccc(C(=O)Nc2ccc(Cl)c(-c3ccccn3)c2)c(Cl)c1 [Vismodegib]
44.94

Identify measured Plate 1 (% conversion) associated with O=C(CCCCCCC(=O)Nc1ccccc1)NO [Vorinostat]
48.13

Identify measured Plate 1 (% conversion) associated with Cc1nc(Nc2ncc(C(=O)Nc3c(C)cccc3Cl)s2)cc(N2CCN(CCO)CC2)n1 [Dasatinib]
59.36

Identify measured Plate 1 (% conversion) associated with Cl.NC(=O)c1cccc2cn(-c3ccc([C@@H]4CCCNC4)cc3)nc12 [MK-4827, HCl salt]
46.34

Identify measured Plate 1 (% conversion) associated with CS(=O)(=O)c1ccc(C2=C(c3ccccc3)C(=O)OC2)cc1 [Rofecoxib (Vioxx)]
49.72

----------
- System under test: human AspH (His6-AspH315–758) (Homo sapiens)
- Construct: N-Terminally His6-tagged human AspH315–758 (His6-AspH315–758) was produced in Escherichia coli BL21 (DE3) cells; made in house; host or cells: Escherichia coli BL21 (DE3), pET-28a(+) vector
- Method: SPE-MS AspH inhibition assay (hFX-CP101-119 substrate hydroxylation)
- Assay type: biochemical
- Test settings: AspH-inhibitor screening, 384-well Plate 1
Where a name gives a salt, the structure may show the parent alone.
The following molecules are shown together with reported Plate 1 (% inhibition) values.
Number in %, nothing else.

C/C=C1\NC(=O)[C@H]2CSSCC/C=C/[C@H](CC(=O)N[C@H](C(C)C)C(=O)N2)OC(=O)[C@H](C(C)C)NC1=O [Romidepsin]
31.77
Nc1ccn([C@@H]2O[C@H](CO)[C@@H](O)C2(F)F)c(=O)n1 [Gemcitabine hydrochloride]
1.09
CN1CCC(COc2cnc(-c3cccc(Cn4nc(-c5cccc(C#N)c5)ccc4=O)c3)nc2)CC1 [EMD1214063]
3.55
COc1cc2nccc(Oc3ccc(NC(=O)NC4CC4)c(Cl)c3)c2cc1C(N)=O [Lenvatinib]
-19.98
CCN(CC)CCOc1ccc(C(=C(Cl)c2ccccc2)c2ccccc2)cc1 [Clomifene citrate]
59.99

Identify measured Plate 1 (% inhibition) associated with O=C1NC(=O)[C@@H](c2cn3c4c(cccc24)CCC3)[C@@H]1c1c[nH]c2ccccc12 [ARQ 197_Tivantinib]
-6.95

Identify measured Plate 1 (% inhibition) associated with C[C@]1(O)C[C@@H](c2nc(-c3ccc4ccc(-c5ccccc5)nc4c3)c3c(N)nccn32)C1 [OSI-906_Linsitinib]
4.66
